target: PADI4 (Homo sapiens, UniProt Q9UM07); construct: His6; made in house; assay: COLDER inhibition assay, BAEE substrate, with or without 1 h preincubation; assay type: biochemical; settings: peptide 10 µM, T=0; read-out: PADI4 activity normalised to 0.1% DMSO
Sequence (Q9UM07 whole entry): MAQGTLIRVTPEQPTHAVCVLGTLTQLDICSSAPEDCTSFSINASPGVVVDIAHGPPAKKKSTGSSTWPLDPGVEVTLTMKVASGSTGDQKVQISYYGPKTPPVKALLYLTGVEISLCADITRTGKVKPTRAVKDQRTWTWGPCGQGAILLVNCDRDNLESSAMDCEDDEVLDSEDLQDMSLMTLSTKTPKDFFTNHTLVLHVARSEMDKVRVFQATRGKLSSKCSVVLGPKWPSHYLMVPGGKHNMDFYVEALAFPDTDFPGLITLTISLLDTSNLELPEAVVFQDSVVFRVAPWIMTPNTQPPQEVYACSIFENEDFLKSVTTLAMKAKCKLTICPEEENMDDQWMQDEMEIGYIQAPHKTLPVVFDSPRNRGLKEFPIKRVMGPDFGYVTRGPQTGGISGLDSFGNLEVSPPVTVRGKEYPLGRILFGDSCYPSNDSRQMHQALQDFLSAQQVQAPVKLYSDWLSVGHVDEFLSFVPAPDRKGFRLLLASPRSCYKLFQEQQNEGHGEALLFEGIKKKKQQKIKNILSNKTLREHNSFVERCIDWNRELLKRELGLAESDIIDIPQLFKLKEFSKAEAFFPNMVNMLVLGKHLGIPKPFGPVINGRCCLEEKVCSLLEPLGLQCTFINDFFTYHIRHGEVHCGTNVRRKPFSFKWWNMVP
Where a SMILES comes first, the peptide text is derived from it. Bridges are numbered along the chain shown (N, C = ends). [ ]: non-standard residue; d: D form. Orn(fluoroacetimidoyl) = N=C(CF)NCCC[C@H](N)C(=O)O
Observed property: remaining activity at 10 µM (%)
Lab book: enter the figure in %, no units written.

[ask] Provide one value: measured remaining activity at 10 µM of CC(C)[C@@H]1NC(=O)[C@@H](Cc2ccc(O)cc2)NC(=O)CSC[C@@H](C(=O)NCC(N)=O)NC(=O)[C@H](Cc2ccc(O)cc2)NC(=O)[C@H](CCCCN)NC(=O)[C@H](Cc2c[nH]c3ccccc23)NC(=O)[C@H](CCC(=O)O)NC(=O)[C@H](CCCCN)NC(=O)[C@H](CCCNC(=N)CF)NC(=O)[C@H](CO)NC(=O)[C@H](Cc2ccc(O)cc2)NC1=O [cP4_7, yVYS(2)KEWKYCG] ({CH2CO}-[dY]VYS[Orn(fluoroacetimidoyl)]KEWKYCG-NH2; thioether N-11)
[reply] 49.3

[ask] Name the recorded remaining activity at 10 µM of the item CC[C@H](C)[C@@H]1NC(=O)[C@@H](Cc2ccc(O)cc2)NC(=O)CSC[C@@H](C(=O)NCC(N)=O)NC(=O)[C@H](CO)NC(=O)[C@H](CCCNC(=N)CF)NC(=O)[C@H](CC(=O)O)NC(=O)[C@H](CCCNC(=N)CF)NC(=O)[C@H](CC(C)C)NC(=O)CNC(=O)[C@H](Cc2c[nH]c3ccccc23)NC1=O [cP4_2, yIWGL(2)D(2)SCG] ({CH2CO}-[dY]IWGL[Orn(fluoroacetimidoyl)]D[Orn(fluoroacetimidoyl)]SCG-NH2; thioether N-10) in your answer.
[reply] 101
